Recorded values, source patent US20060030585A1.

- system-name: hMOR (CHO-hMOR cell membranes) (Homo sapiens)
- Construct: host or cells: CHO cells expressing hMOR (purchased membranes)
- Sequence (P35372 whole entry): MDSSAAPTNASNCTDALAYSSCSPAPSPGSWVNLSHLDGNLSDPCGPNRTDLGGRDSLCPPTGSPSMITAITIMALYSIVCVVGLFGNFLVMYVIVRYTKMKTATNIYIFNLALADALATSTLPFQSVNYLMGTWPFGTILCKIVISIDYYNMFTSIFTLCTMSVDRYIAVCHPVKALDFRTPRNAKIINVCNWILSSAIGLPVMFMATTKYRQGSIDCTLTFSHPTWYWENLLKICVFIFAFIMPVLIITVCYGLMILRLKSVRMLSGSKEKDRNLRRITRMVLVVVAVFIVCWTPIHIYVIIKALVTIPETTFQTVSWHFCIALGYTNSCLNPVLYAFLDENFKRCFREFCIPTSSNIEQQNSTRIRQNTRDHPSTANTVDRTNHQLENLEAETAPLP
- method-summary: [35S]GTPγS binding assay in CHO-hMOR cell membranes
- Assay type: biochemical
- condition: CHO-hMOR cell membranes, [35S]GTPγS binding; read-out: hMOR GTPγS EC50
Reported EC50 values for the following compounds.
Value expressed in nM; do not type the unit.

Form field EC50, entry Oc1cccc2c1Oc1cc(-c3cnc4ccccc4c3)ccc1C2=C1CC2CCC(C1)N2 [Cpd 109] : 1230

Let us examine a further case.
Kindly note the recorded EC50 for Oc1cccc2c1Oc1cc(-c3nnn[nH]3)ccc1C2=C1CC2CCC(C1)N2 [Cpd 90] , which is 90
